test system: hEPO; assay: In vivo expression by IM: serum hEPO concentration by ELISA; conditions: IM 0.075 mg/kg, 24 h, male C57BL/6J mice N=3, Formulation 001, RNA 019
Each entry below lists one item and its recorded hEPO conc. (ng/mL) at 24 h value.

compound	hEPO conc. (ng/mL) at 24 h
CCCCC/C=C\C/C=C\CCCCCCCC(=O)NC(COC(=O)NCCN1CCCCC1)C(=O)OCCCCCCCC(=O)OC(CCCCCCCC)CCCCCCCC (stereo not shown)	12.57
CCCCC/C=C\C/C=C\CCCCCCCC(=O)NC(COC(=O)NCCN1CCCCCC1)C(=O)OCCCCCCCC(=O)OC(CCCCCCCC)CCCCCCCC (stereo not shown)	9.69
CCCCC/C=C\C/C=C\CCCCCCCC(=O)N[C@@H](COC(=O)NCCN1CCCCC1)C(=O)OCCCCCCCC(=O)OC(CCCCCCCC)CCCCCCCC	12.74
CCCCC/C=C\C/C=C\CCCCCCCC(=O)N[C@@H](COC(=O)NCCN1CCCCCC1)C(=O)OCCCCCCCC(=O)OC(CCCCCCCC)CCCCCCCC	7.65

---

Each entry below lists one item and its recorded IL-6 at 24 h value.
test system: IL-6; assay: In vivo tolerability by IM: serum IL-6 by Luminex; settings: IM 1.0 mg/kg, 24 h, male C57BL/6J mice N=3, Formulation 001, RNA 331

compound	IL-6 at 24 h
CCCCC/C=C\C/C=C\CCCCCCCC(=O)NC(COC(=O)NCCN1CCCCC1)C(=O)OCCCCCCCC(=O)OC(CCCCCCCC)CCCCCCCC (stereo not shown) [Lipid 549]	146 pg/mL
CCCCC/C=C\C/C=C\CCCCCCCC(=O)NC(COC(=O)NCCN1CCCCC1)C(=O)OCCCCCC(=O)OCC(CCCCCCCC)CCCCCCCCCC (stereo not shown) [Lipid 728]	143 pg/mL
CCCCCCCC/C=C\CCCCCCCC(=O)NC(COC(=O)NCCN1CCCCCC1)C(=O)OCCCCCCCCOC(=O)C(CCCCCC)CCCCCCCC (stereo not shown) [Lipid 701]	108 pg/mL
CCCCCCCC/C=C\CCCCCCCC(=O)NC(COC(=O)NCCN1CCCCC1)C(=O)OCCCCCCCCOC(=O)C(CCCCCC)CCCCCCCC (stereo not shown) [Lipid 700]	143 pg/mL

---

test system: C57BL/6J mice; assay: In vivo expression by ID, whole-body/injection site skin/lymph node luminescence; details: intradermal 0.15 mg/kg, 72 h post injection, female C57BL/6J mice N=3, Formulation 001, RNA 331
Each entry below lists one item and its recorded Whole body (p/s) value.

compound	Whole body (p/s)
CCCCC/C=C\C/C=C\CCCCCCCC(=O)N[C@@H](COC(=O)NCCN1CCCCC1)C(=O)OCCCCCCCC(=O)OC(CCCCCCCC)CCCCCCCC	5.92E+07 p/s
CCCCC/C=C\C/C=C\CCCCCCCC(=O)NC(COC(=O)NCCN1CCCCC1)C(=O)OCCCCCCCC(=O)OC(CCCCCCCC)CCCCCCCC (stereo not drawn)	4.38E+07 p/s
CCCCC/C=C\C/C=C\CCCCCCCC(=O)NC(COC(=O)NCCN1CCCCCC1)C(=O)OCCCCCCCC(=O)OC(CCCCCCCC)CCCCCCCC (stereo not drawn)	3.09E+07 p/s
